# credit: PubChem BioAssay (Tox21)

# measurement_protocol: qHTS assay to identify small molecule agonists of the sonic hedgehog signaling (Shh) pathway - cell viability counter screen (AID 1259366); further: nearly all actives have a fitted effect of over 50% in size
# recorded_conditions: NIH/3T3 Gli1-Luc viability, CellTiter-Fluor, 24 h; series mostly up to 92.4 µM
Results filed as inconclusive are left out. Activity calls are given as the source filed them. The call rests on the fitted dose curve; in most records, active means well fitted cell-killing curve with a large enough effect in the repeat runs; inconclusive means weak or mixed curves, or effect the other way; inactive means flat fitted curve, though single readings scatter.
measurement_name: outcome

C/C=C(/C(=C/C)c1ccc(OC(C)=O)cc1)c1ccc(OC(C)=O)cc1; inactive
CC1CCC(=O)C1=O (stereo not given); inactive
C=CCOc1ccccc1OCC(O)CNC(C)C (stereo not given); inactive
CC[N+](C)(CC)CCOC(=O)C(O)(c1ccccc1)C1CCCCC1 (stereo not given); inactive
C[C@@H]1C[C@H]2O[C@@]3(O[C@@H]2C(C)(C)O)[C@H](O)[C@@]2(C)[C@@H]4CC[C@H]5C(C)(C)[C@@H](O[C@@H]6OC[C@@H](O)[C@H](O)[C@H]6O)CC[C@@]56C[C@@]46CC[C@]2(C)[C@@H]13; inactive
COc1cc2nc(N3CCN(C(=O)C4COc5ccccc5O4)CC3)nc(N)c2cc1OC (stereo not given); inactive

outcome measured on CCN(CC)CCOC(=O)C(Cc1cccc2ccccc12)CC1CCCO1 (stereo not given) = inactive

Looking up Nc1ccc(S(=O)(=O)Nc2ccccc2)cc1 , I found its outcome recorded as inactive

Data point: Nc1cccc(S(=O)(=O)c2cccc(N)c2)c1 ; outcome = inactive

Input CC(CC=O)c1ccccc1 (stereo not given) . Output outcome: inactive
